Give TGI for every item shown.
Tested on: MOLT-4 leukemia
Method: NCI tumour cell line growth inhibition, 48 h

# Compound, TGI
records = [
    ("C[C@H]1S[C@H](c2c(Cl)cccc2Cl)N2Cc3ccccc3N=C12", "> 100 µM"),
    ("CN(C)C(=S)SCC(=O)Nc1ccccc1", "> 100 µM"),
    ("COc1ccc(C(C2=C(O)COC2=O)c2cc3c(cc2O)OCO3)cc1OC (stereo not drawn)", "> 100 µM"),
    ("CCOc1cc(NC(C)=O)ccc1C(=O)NN1C(=O)CSC1c1ccccc1 (stereo not drawn)", "58.2 µM"),
    ("C(=C\\N1CCCCC1)/c1nnnn1-c1ccccc1", "41.9 µM"),
    ("Cc1cc(N2CCN(C)CC2)n2nc(-c3ccc(Cl)cc3)nc2n1", "> 100 µM"),
    ("CC(C)(C)OC(=O)NCCCCC(NC(=O)c1ccccc1)C(N)=O (stereo not drawn)", "> 100 µM"),
]

Switching to the query record.
Would you kindly share the measured TGI for "CC[n+]1c(/C=C/C=C2\N(C)c3ccccc3C2(C)C)sc2ccccc21" ?
11.6 µM

###

Give log10 TGI for every item shown.
Test system: NCI-H226 lung
Method: NCI tumour cell line growth inhibition, 48 h
Recorded TGI (log10, µM)

Answered cases to consult:
# Compound, log10 TGI
measured = [
    ("CCOc1ccc(NC(=O)CC2C(=O)Nc3ccccc3S2(=O)=O)cc1 (stereo not given)", 1.96),
    ("COc1ccc(/C(C#N)=C2C=C/C(=N/O)c3ccccc3\\2)cc1", 1.23),
    ("O=C1NC(=NCCCc2ccccc2)S/C1=C\\c1ccc2ncccc2c1", 1.03),
    ("N=c1c2c(=N)n3c(nc2nc2n1-c1ccccc1Sc1ccccc1-2)sc1cc(Cl)ccc13", 1.23),
]

Switching to the query record.
Would you kindly share the measured log10 TGI for "CC(=O)[O][Hg][c]1c(C)c(C)cc(C)c1C" ?
0.59

###

System: HS 578T breast
Method: NCI tumour cell line growth inhibition, 48 h
Observable: GI50

Answered cases to consult:
# Compound, Meas Value
records = [
    ("O=C(Nc1nc2ccccc2s1)Nc1ccc([N+](=O)[O-])cc1Cl", "3.98 µM"),
    ("CN(CC(=O)N(Cc1ccc(C2CCCCC2)cc1)c1ccc(C(=O)O)cc1)S(=O)(=O)c1c(F)c(F)c(F)c(F)c1F", "2.47 µM"),
    ("CN1C(=O)C2(c3ccccc31)N(c1ccc(Cl)cc1)C(=O)C2(c1ccccc1)c1ccccc1 (stereo not given)", "21.4 µM"),
    ("C#CCOc1ccc2ncnc(Nc3ccc(NC(=O)C=C)cc3)c2c1", "62 µM"),
]

Switching to the query record.
Would you kindly share the measured GI50 for "CCOC(=O)c1cnc2c(C)cccc2c1Nc1ccc(C(C)=O)cc1" ?
15.4 µM

###

System: UACC-257 melanoma
Method: NCI tumour cell line growth inhibition, 48 h
Observable: TGI

Answered cases to consult:
# Compound, TGI
data = [
    ("CC(C)(C)N(Cc1ccc2c(c1)OCO2)C(=O)/C=C\\Sc1ccccc1", "> 100 µM"),
    ("CCOC(=O)N(c1ccccc1)N(CC)C(=O)/C(C)=N/Nc1ccc([N+](=O)[O-])cc1", "29.3 µM"),
    ("Cn1c(-c2c(N)n(CCCN3CCOCC3)c3nc(C#N)c(C#N)nc23)nc2ccccc21", "> 100 µM"),
    ("CC1=C(C(=O)Nc2cc(F)c(F)cc2F)C(c2ccc([N+](=O)[O-])cc2)C(C(=O)Nc2cc(F)c(F)cc2F)=C(C)N1", "> 100 µM"),
]

For every item below, please supply its TGI.
1. Nc1ncnc2c1ncn2C1OC(CO)C(O)C1N (stereo not given)
2. CCCC(CCN)(CCN)[N+](=O)[O-]
3. CN1CSC(=S)N(Cc2ccccc2)C1
4. O=S(=O)(c1cnccc1N1CCN(CCO)CC1)N1CCCC1
5. COC(=O)c1ccc(NC(=O)Oc2ccc(N(CCCl)CCCl)cc2)cc1
6. COc1ccc(/C=C/C(=O)c2sc(-n3nc(-c4ccccc4)cc3-c3ccccc3)nc2C)cc1

["> 100 µM", "> 100 µM", "30.4 µM", "> 100 µM", "99.7 µM", "> 100 µM"]

###

Give TGI for every item shown.
Test system: DLD-1 colon
Method: NCI tumour cell line growth inhibition, 48 h

Answered cases to consult:
# Compound, System Under Test, TGI
rows = [
    ("CCCCCCC[CH2][Sn]1([CH2]CCCCCCC)[O]C(=O)c2cccnc2[O]1", "DLD-1 colon", "> 100 µM"),
    ("Cc1c(/C=N/N(C)C)oc2c1cc(O)c1ncccc12", "DLD-1 colon", "> 100 µM"),
]

Switching to the query record.
Would you kindly share the measured TGI for NC(=O)NC1C(C(N)=O)N(Cc2ccccc2)C(=O)N1Cc1ccccc1 (stereo not drawn) ?
> 100 µM

###

Test system: SNB-75 CNS
Method: NCI tumour cell line growth inhibition, 48 h
Observable: TGI

Answered cases to consult:
# Molecule, TGI
data = [
    ("C[Si](C)(c1ccccc1)[C@H]1CCCC=C1CCNC1c2ccccc2CCc2ccccc21", "> 100 µM"),
    ("ClC(Cl)[Si]12OCCN(CCO1)CCO2", "> 100 µM"),
    ("CSC1NC(c2ccc(Cl)cc2)=C(C#N)C(=O)N1C1OCC(OC(C)=O)C(OC(C)=O)C1OC(C)=O (stereo not given)", "> 100 µM"),
]

For every item below, please supply its TGI.
1. COc1cc(-c2nn(-c3cccc(NC(=O)c4ccc(Cl)c(C(F)(F)F)c4)c3)cc2-c2ccncc2)ccc1Cl
2. Fc1cccc(F)c1C1SCc2nc3ccc(Cl)cc3n21 (stereo not given)
3. CCc1nc(N)nc(N)c1-c1ccc(N2CCNCC2)cc1
4. C(=C\N1CCCCC1)/c1nnnn1-c1ccccc1

1. 13.2 µM
2. > 100 µM
3. > 100 µM
4. 69.7 µM

###

Test system: KM12 colon
Method: NCI tumour cell line growth inhibition, 48 h
Give TGI for every item shown.

Answered cases to consult:
# Molecule, System Under Test, Meas Value
rows = [
    ("O=C(Nc1ccccc1)c1cc(S(=O)(=O)N2CCNNC2=O)c(S)cc1Cl", "KM12 colon", "> 100 µM"),
    ("Cc1nc2c(=S)n(C)ncc2[nH]1", "KM12 colon", "> 100 µM"),
]

For every item below, please supply its TGI.
1. O=C1Nc2ccccc2/C1=c1\[nH]c(=O)/c(=C\c2ccc(OCc3ccccc3)cn2)[nH]c1=O
2. CCCCCCC[CH2][Sn]1([CH2]CCCCCCC)[O]C(=O)c2cccnc2[O]1

["> 100 µM", "> 100 µM"]

###

Give TGI for every item shown.
Tested on: DLD-1 colon
Method: NCI tumour cell line growth inhibition, 48 h

Answered cases to consult:
# Molecule, TGI
data = [
    ("Cn1nc(-c2ccccc2)c2c(/C=C/c3ccccc3)onc2c1=O", "> 100 µM"),
    ("CCOc1ccc(NC(=O)CC2C(=O)Nc3ccccc3S2(=O)=O)cc1 (stereo not given)", "> 100 µM"),
    ("CC(=O)OC1COC(n2c(=S)n(-c3ccccc3)c(=O)c3ccccc32)C(OC(C)=O)C1OC(C)=O (stereo not given)", "> 100 µM"),
    ("NS(=O)(=O)OCCCCCCCOS(N)(=O)=O", "1540 µM"),
]

Switching to the query record.
Would you kindly share the measured TGI for Nc1ncnc2c1ncn2C1CC(OCc2ccccc2[N+](=O)[O-])C(CO)O1 (stereo not given) ?
> 50 µM

###

Give GI50 for every item shown.
Tested on: TK-10 renal
Method: NCI tumour cell line growth inhibition, 48 h

# Smiles Text, System Under Test, Observable, Meas Value
measured = [
    ("O=C(CC(Cl)=C(Cl)Cl)c1cccc(Cl)c1Cl", "TK-10 renal", "GI50", "28200 nM"),
]

For every item below, please supply its GI50.
1. COc1ccc(N=N/C(C(=O)C(F)(F)F)=C(\O)c2ccc(Cl)cc2)cc1
2. CCCCCCCCCCCC[n+]1ccc2ccccc2c1
3. CCCCCCCCCCCCCC[C@@H](O)[C@H]1CC[C@H]([C@H]2CC[C@H]([C@H](O)CCCCCC[C@@H](O)CC3=C[C@H](C)OC3=O)O2)O1
4. COc1ccc(/C(C#N)=C2C=C/C(=N/O)c3ccccc3\2)cc1
5. CCN1CCN(C(=O)[C@]23CCC(C)(C)C[C@@H]2C2=CC[C@@H]4[C@@]5(C)C/C(=C/c6ccncc6)C(=O)C(C)(C)[C@@H]5CC[C@@]4(C)[C@]2(C)CC3)CC1
6. CN(CC(=O)N(Cc1ccc(C2CCCCC2)cc1)c1ccc(C(=O)O)cc1)S(=O)(=O)c1c(F)c(F)c(F)c(F)c1F

1: 18300 nM; 2: 1170 nM; 3: 2720 nM; 4: 11300 nM; 5: 1950 nM; 6: 2750 nM
